System: SKOV3
Assay: Primary qHTS to identify gynecologic anti-cancer compounds using libraries of approved drugs and bioactive compounds (AID 1345084); also: nearly all actives have a fitted effect of over 55% in size
Conditions: Gynecologic cancer cell panel viability, ATPlite luminescence, 48 h; series mostly up to 57.5 µM
Results filed as inconclusive are left out. The source made the active and inactive calls. Calls follow the shape of the dose curve; as a rule, active = well fitted cell-killing curve with a large enough effect; inconclusive = small, poorly fitted or top-dose-only effect, or effect the other way; inactive = flat fitted curve, though single readings scatter.
Labels: active, inactive

molecule	labelClass
C=C[C@]1(C)C[C@H](O)[C@@H]2[C@H](OC(=O)[C@@H]2C)C1/C(C)=C/O[C@@H]1O[C@H](CO)[C@@H](O)[C@H](O)[C@H]1O (stereo not given in full)	inactive
CC(=O)OC1C(O)C2C(C)C3=CC(=O)OC3(O)CC2C2(C)CCCC(C)(CO)C12 (stereo not given)	inactive
O=C(CCc1ccccc1)N1CCC(O)(Cn2cnc3cc(Cl)ccc3c2=O)CC1	inactive
CCOCCn1nc(CC)c2nc(N3CCC(C(=O)O)CC3)nc(Nc3cc(C)ccn3)c21	inactive
C=C1CCC2C(C)(C)C(O)CCC2(C)C1CCC(C)CCO (stereo not given)	inactive
O=C1NC(=O)C(c2cn(-c3ccccc3)nc2-c2ccc(F)cc2)N1 (stereo not given)	inactive
CCc1cccc(CC)c1NC(=O)c1nn(C)c2c1CCc1cnc(Nc3ccc(C(=O)NC4CCN(C)CC4)cc3OC(F)(F)F)nc1-2	inactive
Cc1ccc(-c2ccc3ncc4c(c3n2)n(C2CCN(C(=O)[C@H](C)O)CC2)c(=O)n4C)cn1	active
CC1(C)CCCC2(C)C(CO)C(CO)=CCC12 (stereo not given)	inactive
C=C1C(O)C[C@@H]2C(C(=O)O)=CO[C@@H](O[C@@H]3O[C@H](CO)[C@@H](O)[C@H](O)[C@H]3OC(=O)c3ccc(O)cc3)[C@H]12 (stereo not given in full)	inactive
CC(C)=CCC/C(C)=C/Cc1ccc(O)c(C2OC(=O)c3cc(C(=O)O)cc(O)c32)c1O (stereo not given)	inactive
CC1(C)C2CC=C(COC3OC(COC4OCC(O)(CO)C4O)C(O)C(O)C3O)C1C2 (stereo not given)	inactive
COc1c2c(c(C)c3c1C(=O)OC3)OC1(C)CC(O)C(C(C)(C)O)C(C)(CCC(=O)O)C1C2 (stereo not given)	inactive
CC(C)CNCc1ccc(-c2ccccc2S(=O)(=O)N2CCCC2)cc1	inactive
Cc1ccc(-c2c(C(=O)CF)n(CCCO)c3ncnc(N)c23)cc1	inactive
CC1=CC2/C=C(\C)CC[C@@H](O)[C@@H](O)[C@@H]3O[C@@H]3C(=O)[C@]23C(=O)N[C@@H](CC(C)C)[C@@H]3[C@@H]1C (stereo not given in full)	inactive
CCCOC(c1cc2nccc(C(=O)O)c2[nH]1)c1ccccc1Cl (stereo not given)	inactive
COC(=O)C[C@H]1C(C)(C)[C@H](OC(=O)C(C)C)[C@@]2(O)C(=O)[C@]1(C)C1CC[C@]3(C)C(CC(=O)O[C@H]3c3ccoc3)[C@]13O[C@@H]32 (stereo not given in full)	inactive
CC/C=C\CCO[C@@H]1O[C@H](CO[C@@H]2OC[C@H](O)[C@H](O)[C@H]2O)[C@@H](O)[C@H](O)[C@H]1O	inactive
CC(C)=CCCC1(C)C=Cc2c(c(C)cc3c2[nH]c2ccccc23)O1 (stereo not given)	active

Entry source: PubChem BioAssay (NCATS)
